// provenance: patent US8299103B2

# Tgt: human CB2R (Homo sapiens, UniProt P34972)
# Construct: host or cells: CHO cells
# Sequence (P34972 whole entry): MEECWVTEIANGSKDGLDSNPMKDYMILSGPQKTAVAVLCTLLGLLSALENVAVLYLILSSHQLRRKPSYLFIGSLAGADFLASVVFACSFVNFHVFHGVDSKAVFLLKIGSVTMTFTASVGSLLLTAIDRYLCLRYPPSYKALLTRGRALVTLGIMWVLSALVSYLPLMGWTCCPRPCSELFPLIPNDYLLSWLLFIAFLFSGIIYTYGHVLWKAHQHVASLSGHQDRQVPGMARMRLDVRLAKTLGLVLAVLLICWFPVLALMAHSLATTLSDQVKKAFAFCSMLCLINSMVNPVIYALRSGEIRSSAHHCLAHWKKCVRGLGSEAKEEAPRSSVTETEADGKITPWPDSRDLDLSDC
# Method Description: CB2R mediated modulation of cAMP synthesis
# Format: cell-based
Readout Name: EC50 (nM)
Form entry: value (nM) — number only.

[in] Param readout= EC50; system= human CB2R (Homo sapiens, UniProt P34972); entry= CN(C(=O)C[C@H]1CCOC1)C(C)(C)C(=O)Nc1cc(C(C)(C)CO)no1 ; returns value.
[out] 25

[in] Record lookup: for human CB2R (Homo sapiens, UniProt P34972), what EC50 belongs to COCCOC(C)(C)c1cc(NC(=O)C(C)(C)N(C)C2CCOCC2)on1 ?
[out] 93

[in] Find EC50 (human CB2R (Homo sapiens, UniProt P34972)) for the entry C[C@H](O)C(C)(C)c1cc(NC(=O)C(C)(C)N(C)C2CCOCC2)on1
[out] 28

[in] Observed EC50 on human CB2R (Homo sapiens, UniProt P34972) for CN(CC1CC1)C(C)(C)C(=O)Nc1cc(C(C)(C)CO)no1 , please.
[out] 12

[in] Record CN(C[C@H]1COCCO1)C(C)(C)C(=O)Nc1cc(C(C)(C)CO)no1 : what is its EC50 with human CB2R (Homo sapiens, UniProt P34972)?
[out] 68
